Experimental system: D(2) dopamine receptor (Rattus norvegicus, UniProt P61169)
Sequence (P61169 whole entry): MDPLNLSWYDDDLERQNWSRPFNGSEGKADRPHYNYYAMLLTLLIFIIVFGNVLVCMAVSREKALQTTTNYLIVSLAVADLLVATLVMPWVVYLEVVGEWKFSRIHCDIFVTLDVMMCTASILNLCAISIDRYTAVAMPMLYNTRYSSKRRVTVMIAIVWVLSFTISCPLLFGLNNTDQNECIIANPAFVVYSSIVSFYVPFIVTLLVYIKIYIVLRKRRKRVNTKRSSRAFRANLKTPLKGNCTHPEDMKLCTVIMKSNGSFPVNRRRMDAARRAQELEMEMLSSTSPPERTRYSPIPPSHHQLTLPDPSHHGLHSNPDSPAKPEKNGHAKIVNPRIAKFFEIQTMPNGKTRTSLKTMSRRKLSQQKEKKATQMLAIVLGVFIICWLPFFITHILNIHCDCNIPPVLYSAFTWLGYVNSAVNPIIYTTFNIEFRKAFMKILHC
Test details: Displacement of [3H]spiperone from dopamine D2 receptors in rat striatal membranes
Documented pIC50 across a set of compounds
# pIC50 is unitless: minus log10 of the molar concentration; print number only

Note to self: pIC50 recorded for Fc1ccc(C2CC(N3CCN(CCN4CCCN=C4S)CC3)c3ccc(Cl)cc32)cc1.O=C(O)/C=C\C(=O)O.O=C(O)/C=C\C(=O)O (stereo not given) was 7.03

For reference, reported pIC50 for OCCN1CCN(C2CC(c3ccc(F)cc3)c3c(Cl)cccc32)CC1 (stereo not given) stands at 6.66

Entry Cl.Cl.Fc1ccc(C2CC(N3CCN(CCN4CCCNC4=S)CC3)c3ccc(F)cc32)cc1 (single isomer, unassigned; (+)) , pIC50 reported as 6.85

Measured pIC50 of Cl.Cl.OCCN1CCN(C2CC(c3ccc(F)cc3)c3cc(Cl)ccc32)CC1 (single isomer, unassigned; (+)) : 5.20

Per the record, OCCN1CCN(C2CC(c3ccc(F)cc3)c3ccc(Cl)cc32)CC1 (stereo not given) has pIC50 of 7.70

Form field pIC50, entry Cc1ccc2c(c1)C(c1ccc(F)cc1)CC2N1CCN(CCO)CC1.O=C(O)/C=C\C(=O)O.O=C(O)/C=C\C(=O)O (stereo not given) : 5.96
